target: COX-2 (Homo sapiens, UniProt P35354); construct: purchased Cayman 560131; experiment: Cyclooxygenase COX-2 inhibitory assay (Cayman COX inhibitor assay kit); assay type: biochemical; details: 7.5 µg/mL; mean ± SD, n=3; read-out: Percentage inhibition COX2
observation-type: inhibition at 7.5 µg/mL (%)

compound	unit-label	inhibition at 7.5 µg/mL
C=C1C(O)CCC2C1(C)CCC(C)C2(C)CCC1=CC(=O)OC1O (centres unmarked)	%	67.1
CC1=CCCC2C1(C)CCC(C)C2(C)CCC(=CC(=O)O)CO (centres unmarked) [Compound 2, 16-hydroxy-cleroda-3,13-dien-15-oic acid]	%	77.4
C=C1CCCC2C1(C)CCC(C)C2(C)CCC1=CC(=O)OC1O (centres unmarked)	%	73.3
CC1=CCCC2C1(C)CCC(C)C2(C)CCC(C=O)=CC(=O)O (centres unmarked)	%	42.8
CC1=CCCC2C1(C)CCC(C)C2(C)CCC1=CC(=O)OC1O (centres unmarked)	%	69.3

====

Biological target: 5-LOX (human recombinant) (Homo sapiens)
Construct: purchased Sigma Aldrich 437996
Sequence (P09917 1-674): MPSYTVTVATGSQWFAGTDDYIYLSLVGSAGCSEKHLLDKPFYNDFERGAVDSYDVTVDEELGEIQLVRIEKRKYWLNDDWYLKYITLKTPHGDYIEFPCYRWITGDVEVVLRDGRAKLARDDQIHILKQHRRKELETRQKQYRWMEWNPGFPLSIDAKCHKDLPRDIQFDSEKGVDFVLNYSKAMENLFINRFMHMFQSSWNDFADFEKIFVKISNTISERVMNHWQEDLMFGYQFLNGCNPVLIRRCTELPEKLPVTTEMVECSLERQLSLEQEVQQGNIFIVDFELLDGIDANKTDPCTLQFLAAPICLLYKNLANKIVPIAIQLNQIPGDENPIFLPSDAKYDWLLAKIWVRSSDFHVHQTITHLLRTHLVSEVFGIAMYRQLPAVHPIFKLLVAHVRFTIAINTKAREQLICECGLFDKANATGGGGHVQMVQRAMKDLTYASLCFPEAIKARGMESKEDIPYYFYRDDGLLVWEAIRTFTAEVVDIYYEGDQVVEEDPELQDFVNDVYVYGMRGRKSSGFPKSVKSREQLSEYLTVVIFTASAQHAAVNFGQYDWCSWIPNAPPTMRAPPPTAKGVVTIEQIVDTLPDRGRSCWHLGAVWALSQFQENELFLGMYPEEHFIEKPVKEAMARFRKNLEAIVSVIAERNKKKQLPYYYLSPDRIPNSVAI
Assay: 5-lipoxygenase inhibitory assay (5-LOX assay kit)
Assay type: biochemical
Conditions: 7.5 µg/mL; mean ± SD, n=3; read-out: Percentage inhibition 5-LOX
observation-type: inhibition at 7.5 µg/mL (%)

Example compounds with recorded inhibition at 7.5 µg/mL:
compound	reading
C=C1C(O)CCC2C1(C)CCC(C)C2(C)CCC1=CC(=O)OC1O (stereo not drawn)	55.4
C=C1CCCC2C1(C)CCC(C)C2(C)CCC1=CC(=O)OC1O (stereo not drawn)	77.5
CC1=CCCC2C1(C)CCC(C)C2(C)CCC(=CC(=O)O)CO (stereo not drawn) [Compound 2, 16-hydroxy-cleroda-3,13-dien-15-oic acid]	40
CC1=CCCC2C1(C)CCC(C)C2(C)CCC(C=O)=CC(=O)O (stereo not drawn)	41.1

(1) CC1=CCCC2C1(C)CCC(C)C2(C)CCC1=CC(=O)OC1O (stereo not drawn)
(2) O=C(O)Cc1ccccc1Nc1c(Cl)cccc1Cl [Diclofenac, reference compound]
In terms of reported inhibition at 7.5 µg/mL, does 1 or 2 have the smaller number? Response format: the label of the selected entry. 2

====

target: 5-LOX (human recombinant) (Homo sapiens); construct: purchased Sigma Aldrich 437996; assay: 5-lipoxygenase inhibitory assay (5-LOX assay kit); assay type: biochemical; details: 5.0 µg/mL; mean ± SD, n=3; read-out: Percentage inhibition 5-LOX
observation-type: inhibition at 5 µg/mL (%)

Observe how each entry below is paired with its result.
molecule	inhibition at 5 µg/mL, %
CC1=CCCC2C1(C)CCC(C)C2(C)CCC(=CC(=O)O)CO (stereo not drawn) [Compound 2, 16-hydroxy-cleroda-3,13-dien-15-oic acid]	24.5
C=C1CCCC2C1(C)CCC(C)C2(C)CCC1=CC(=O)OC1O (stereo not drawn) [Compound 3]	59.3
C=C1C(O)CCC2C1(C)CCC(C)C2(C)CCC1=CC(=O)OC1O (stereo not drawn) [Compound 4]	44.3

(A) CC1=CCCC2C1(C)CCC(C)C2(C)CCC1=CC(=O)OC1O (stereo not drawn) [Compound 5]
(B) O=C(O)Cc1ccccc1Nc1c(Cl)cccc1Cl [Diclofenac, reference compound]
Input pair: A , B . Output: entry with lower inhibition at 5 µg/mL. In your reply, give the label of the chosen option. B

====

molecular target: COX-2 (Homo sapiens, UniProt P35354); construct: purchased Cayman 560131; assay: Cyclooxygenase COX-2 inhibitory assay (Cayman COX inhibitor assay kit); assay type: biochemical; conditions: 5.0 µg/mL; mean ± SD, n=3; read-out: Percentage inhibition COX2
observation-type: inhibition at 5 µg/mL (%)

compound	assayed-target	unit-label	reading
C=C1CCCC2C1(C)CCC(C)C2(C)CCC1=CC(=O)OC1O (centres unmarked) [Compound 3]	COX-2 (Homo sapiens, UniProt P35354)	%	63.2
CC1=CCCC2C1(C)CCC(C)C2(C)CCC1=CC(=O)OC1O (centres unmarked) [Compound 5]	COX-2 (Homo sapiens, UniProt P35354)	%	57.2
CC1=CCCC2C1(C)CCC(C)C2(C)CCC(C=O)=CC(=O)O (centres unmarked) [Compound 1]	COX-2 (Homo sapiens, UniProt P35354)	%	23.4
CC1=CCCC2C1(C)CCC(C)C2(C)CCC(=CC(=O)O)CO (centres unmarked) [Compound 2, 16-hydroxy-cleroda-3,13-dien-15-oic acid]	COX-2 (Homo sapiens, UniProt P35354)	%	59.2
C=C1C(O)CCC2C1(C)CCC(C)C2(C)CCC1=CC(=O)OC1O (centres unmarked) [Compound 4]	COX-2 (Homo sapiens, UniProt P35354)	%	55.2

====

target: COX-2 (Homo sapiens, UniProt P35354); construct: purchased Cayman 560131; experiment: Cyclooxygenase COX-2 inhibitory assay (Cayman COX inhibitor assay kit); format: biochemical; conditions: 10.0 µg/mL; mean ± SD, n=3; read-out: Percentage inhibition COX2
observation-type: inhibition at 10 µg/mL (%)

compound	reading
CC1=CCCC2C1(C)CCC(C)C2(C)CCC1=CC(=O)OC1O (centres unmarked)	79.4
CC1=CCCC2C1(C)CCC(C)C2(C)CCC(C=O)=CC(=O)O (centres unmarked)	62.9
C=C1CCCC2C1(C)CCC(C)C2(C)CCC1=CC(=O)OC1O (centres unmarked)	83
CC1=CCCC2C1(C)CCC(C)C2(C)CCC(=CC(=O)O)CO (centres unmarked) [Compound 2, 16-hydroxy-cleroda-3,13-dien-15-oic acid]	85
C=C1C(O)CCC2C1(C)CCC(C)C2(C)CCC1=CC(=O)OC1O (centres unmarked)	75.1

====

molecular target: COX-1 (Ovis aries); construct: purchased Cayman 560131; experiment: Cyclooxygenase COX-1 inhibitory assay (Cayman COX inhibitor assay kit); assay type: biochemical, ovine; settings: 2.5 µg/mL; mean ± SD, n=3; read-out: Percentage inhibition COX1
Sequence (P05979 25-600): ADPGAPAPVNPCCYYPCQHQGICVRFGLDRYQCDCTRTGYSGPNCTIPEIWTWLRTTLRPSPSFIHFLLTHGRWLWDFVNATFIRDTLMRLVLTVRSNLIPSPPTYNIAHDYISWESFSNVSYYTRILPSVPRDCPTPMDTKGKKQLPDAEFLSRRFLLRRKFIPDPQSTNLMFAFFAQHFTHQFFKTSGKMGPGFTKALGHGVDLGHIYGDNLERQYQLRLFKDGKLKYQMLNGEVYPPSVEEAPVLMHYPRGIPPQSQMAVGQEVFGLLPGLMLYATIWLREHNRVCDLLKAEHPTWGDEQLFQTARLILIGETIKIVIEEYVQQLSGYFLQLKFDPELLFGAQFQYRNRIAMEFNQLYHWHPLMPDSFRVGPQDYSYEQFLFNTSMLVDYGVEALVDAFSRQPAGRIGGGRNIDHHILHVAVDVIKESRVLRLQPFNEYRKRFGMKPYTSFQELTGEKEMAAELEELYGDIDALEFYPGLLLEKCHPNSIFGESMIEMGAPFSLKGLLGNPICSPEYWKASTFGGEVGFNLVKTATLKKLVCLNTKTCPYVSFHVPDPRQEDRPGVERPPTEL
observation-type: inhibition at 2.5 µg/mL (%)

Consider the following illustrative entries.
compound	inhibition at 2.5 µg/mL, %
CC1=CCCC2C1(C)CCC(C)C2(C)CCC(C=O)=CC(=O)O (centres unmarked)	21.8
CC1=CCCC2C1(C)CCC(C)C2(C)CCC1=CC(=O)OC1O (centres unmarked)	42.3
C=C1CCCC2C1(C)CCC(C)C2(C)CCC1=CC(=O)OC1O (centres unmarked)	38.1

(P) CC1=CCCC2C1(C)CCC(C)C2(C)CCC(=CC(=O)O)CO (centres unmarked) [Compound 2, 16-hydroxy-cleroda-3,13-dien-15-oic acid]
(Q) C=C1C(O)CCC2C1(C)CCC(C)C2(C)CCC1=CC(=O)OC1O (centres unmarked)
In terms of reported inhibition at 2.5 µg/mL, does P or Q have the smaller number? // caller expects the label of the chosen entry P

====

Molecular target: COX-2 (Homo sapiens)
Construct: purchased Cayman 560131
Sequence (P35354 18-604): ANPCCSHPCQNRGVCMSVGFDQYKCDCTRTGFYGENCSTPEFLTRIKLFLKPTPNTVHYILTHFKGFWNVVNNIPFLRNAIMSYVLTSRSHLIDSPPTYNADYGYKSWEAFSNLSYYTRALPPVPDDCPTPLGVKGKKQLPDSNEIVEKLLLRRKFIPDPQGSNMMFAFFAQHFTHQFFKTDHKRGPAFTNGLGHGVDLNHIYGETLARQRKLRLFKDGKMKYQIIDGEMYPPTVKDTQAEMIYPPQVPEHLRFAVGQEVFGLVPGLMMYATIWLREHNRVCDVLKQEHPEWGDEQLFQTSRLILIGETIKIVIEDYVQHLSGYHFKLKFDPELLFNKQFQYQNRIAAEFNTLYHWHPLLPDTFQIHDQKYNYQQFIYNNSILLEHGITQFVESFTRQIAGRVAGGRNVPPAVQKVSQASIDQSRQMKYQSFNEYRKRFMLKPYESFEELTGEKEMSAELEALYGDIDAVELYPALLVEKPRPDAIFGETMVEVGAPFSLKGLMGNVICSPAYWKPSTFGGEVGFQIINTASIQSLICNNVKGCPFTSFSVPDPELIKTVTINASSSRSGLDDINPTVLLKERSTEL
Assay: Cyclooxygenase COX-2 inhibitory assay (Cayman COX inhibitor assay kit)
Assay type: biochemical
Conditions: mean ± SD, n=3; linear regression; read-out: IC50 values COX2 (converted)
observation-type: IC50 (µM)

molecule	IC50 [µM]
CC1=CCCC2C1(C)CCC(C)C2(C)CCC(=CC(=O)O)CO (centres unmarked) [Compound 2, 16-hydroxy-cleroda-3,13-dien-15-oic acid]	12.7
CC1=CCCC2C1(C)CCC(C)C2(C)CCC(C=O)=CC(=O)O (centres unmarked) [Compound 1]	26.4
C=C1C(O)CCC2C1(C)CCC(C)C2(C)CCC1=CC(=O)OC1O (centres unmarked) [Compound 4]	12.8
C=C1CCCC2C1(C)CCC(C)C2(C)CCC1=CC(=O)OC1O (centres unmarked) [Compound 3]	8.51
CC1=CCCC2C1(C)CCC(C)C2(C)CCC1=CC(=O)OC1O (centres unmarked) [Compound 5]	10.3

These data points were gathered from paper PMC7524750.
